Measured apparent KD of MS2 coat protein, listed per entry for reference.
Test system: MS2 coat protein
Test: apparent KD of MS2 coat protein; higher = weaker reporter binding
Conditions: Eterna round: R107; input ligand: theophylline 20 uM
The reply should contain only the number, in nM.

AGCACUGUGACGGCCGCCACUACAUAAAUAGGGUGGUCAGGUUCAUUACAUGAGGAUCACCCAUGUAGGACCGGGUCUCAGUGCA [Omei Trp Exc B A v7]    11.9

Name the recorded apparent KD of MS2 coat protein for UAUAUAUAUAGGGAUACCAGCAGAGAAAACGUUUAUCCUAACAUGAGGAUCACCCAUGUAUGCCCUUGGCAGCUUUAUAUAUAUA [8.F] . 27.6

Name the recorded apparent KD of MS2 coat protein for AUCGUACCUGAAGAUACCAGCAUGUGAUCAUAACAUGAGGAUCACCCAUGUAAUCAGUGAUGCCCUUGGCAGCUUGAUCGGUACA [Same State - Theophylline B (Freestyle 12)] . 41.3

Name the recorded apparent KD of MS2 coat protein for CUACAUUUGUAGAAACCGGUCAACAAUAAUCGAGGACCGGUACGGCCGCCACUCGAUGUAAAAUAAACAUGAGGAUCACCCAUGU [Tryptophan A 12] . 20.6

Name the recorded apparent KD of MS2 coat protein for GGUAUGUAUUCGGAAACGAAUGCAUACCAUCGAGGACCGGUACGGCCGCCACUCGUGGCUGAUCAACAUGAGGAUCACCCAUGUA [Ex Tryptophan A 1] . 94.3

Name the recorded apparent KD of MS2 coat protein for CUCGAGGCCGGUGAUACCAGACACGAAACUAUACAUGAGGAUCACCCAUGUCAAACAACGGUCCCUUGGCAGCAUGGGUGUAUCC [Enzabemage] . 131

Name the recorded apparent KD of MS2 coat protein for AGGACGGUCGGAAGGAGCGGUACAUGAGGAUCACCCAUGUACCUCUGGGCAUCCGUAGUGUGCCAGGUAGGUCGCCGAUUGCGGG [Lareerra] . 19.5

Name the recorded apparent KD of MS2 coat protein for AAUGUAUGGCACAUGAGGAUCACCCAUGUGCGAGGACCGGUACGGCCGCCACUCGGUCGGUGGUUAAUGAAGCUAUACAUUAAUG [XTryp A #13] . 53.5

Name the recorded apparent KD of MS2 coat protein for GCGUACGAUCGGGAUACCAGACAUUGCCGUUAGGGUGAACCUGAGGAACACCCAGGUUUUGUCCCUUGGCAGCCCGAUCGUACGC [ETB NP+V+V2 #8 Diff Apt, Same Structure] . 65.8

Name the recorded apparent KD of MS2 coat protein for GAGCUGAUGUAGAGCUUAUAUAAGAGAGAUACCAGUACAGAAAUGUACCCUUGGCAGCUCAACUUUACAUGAGGAUCACCCAUGU [Ex Theophylline A 20] . 16

Name the recorded apparent KD of MS2 coat protein for ACAUGAGGAUCACCCAUGUACAUGAGGGAAGGAGCGGUACAUGAGCCAGGUAGGUCGCCCAUGAGCAUCAGGCAUGUACAUCAGC [kokmmullin] . 97.3

Name the recorded apparent KD of MS2 coat protein for AAAUAAAUACAUGAGGAUCACCCAUGUGAAGGAGCGCCCGUUAGGGCAGGUAGGUCGCACAUGAAUAACUCCGUGCAAAAGCACA [ArgEX 18 #OpenEnded] . 38.8
